Assay: JC-1 mitochondrial signal, unstimulated MM1S myeloma – cell-based, JC-1 fluorescence, 24 h, 100 nL compound, profiling panel (AID 1170); also: test concentration not given here
Details: MM1S mitochondrial potential, higher = more signal
z-score values by entry
Please reply with the value in numeric form only.

Examples with answers:
Compound: CCN(CC)c1ccc(N2CC=CC34O[C@@H]5/C=C\CCC(C)OC(=O)C5[C@H]3C(=O)N(CCCCCO)[C@@H]4C2=O)cc1 (stereo partly drawn)
z-score: 1.29
--
Compound: Cc1ccc(S[C@]2(C(=O)O)CC(=O)N(Cc3ccccc3C(F)(F)F)[C@@H]2c2ccc(CO)cc2I)cc1
z-score: -1.48
--
Compound: O=C1C2C=CC(C(O)c3cc(C(F)(F)F)cc(C(F)(F)F)c3)N(Nc3ccccc3)C2C(=O)N1c1ccccc1 (stereo not drawn)
z-score: -0.994
--
Compound: CC(c1ccccc1)C(O)C1C=CC2C(=O)N(c3ccccc3)C(=O)C2N1Nc1ccccc1 (stereo not drawn)
z-score: -0.547
--
Compound: O=C1[C@@]23C=C(Br)[C@H](C[C@@H]2COC3)[C@]12CO2
z-score: -2.19
--
Compound: OCC1C=C(/C=C/c2ccccc2)CN1Cc1ccccc1Br (stereo not drawn)
z-score: -1.87

Item under review: C=CCC(OC(C)=O)[C@@H]1[C@@H](N(Cc2ccc(-c3cccc(C(F)(F)F)c3)o2)C(=O)Cc2ccc(OC)cc2)c2cc(OCCCO)ccc2N1C(=O)c1ccc2ccccc2c1 (stereo partly drawn) . Reported z-score?
0.675

Can you share its z-score? I mean this compound: O=C1NC(=O)C2C1C=CC(C(O)c1ccc(-c3ccccc3)s1)N2Nc1ccc(Cl)cc1Cl (stereo not drawn)
-0.247

z-score for COc1ccc([Si](C)(C)[C@@H]2[C@@H](CC(=O)N3Cc4ccccc4C[C@H]3CO)O[C@]3(C(=O)N(Cc4cccc(N5CCC5=O)c4)c4ccccc43)[C@H]2C)cc1 ?
-1.16

Record request: z-score value, item COc1ccc([C@H]2C[C@H]3C(I)=C[C@@H]2C(=O)[C@]32CO2)cc1
-0.967

Entry [N-]=[N+]=Nc1ccccc1C[C@@]1(C(=O)N2CCCCC2)N=C(c2ccc(OCCCO)cc2)O[C@@H]1c1ccccc1 has what z-score?
0.992

I would be grateful if you could share the reported z-score for C[N+](C)(C)CCCC[C@@H]1NC(=O)[C@H]2C[C@@H](C(=O)NCCCCCCNC(=O)CS)[C@@H](c3ccc(O)cc3)N2C1=O .
-0.0762

Need z-score of C=C(CCCC)/C(=C/C[C@@H](OC(C)=O)c1ccccc1OCCO)c1cc(C(=O)OC)ccc1OC , thanks.
0.234

// query z-score value for entry CC(C)C(=C=CC[C@H](O)c1ccc(CO)o1)CCO
0.019

Item under review: CCN(CC)c1ccc(N2CC=CC34O[C@@H]5C=CCOC(=O)[C@@H]5[C@H]3C(=O)N(CCCCCCO)[C@@H]4C2=O)cc1 (stereo partly drawn) . Reported z-score?
-0.72

Can you share its z-score? I mean this compound: O=C1OCCC/C=C\[C@H]2OC34C=CCN(c5ccc6ccccc6c5)C(=O)[C@H]3N(CCCCCO)C(=O)[C@@H]4C12 (stereo partly drawn)
-0.505

So what's the measured z-score for this one? COC(=O)[C@@]1(Cc2ccccc2)[C@H]2c3cc(C(=O)N(C)C)n(CCc4c[nH]c5ccc(O)cc45)c3C[C@H]2CN1C(=O)c1ccccc1
-1.57

Given O=C1O[C@H](c2ccccc2)[C@H](c2ccccc2)N2[C@H]1[C@@H](C(=O)NC[C@H](O)c1ccccc1)[C@]1(C(=O)Nc3ccccc31)[C@H]2c1ccc(O)cc1 , state its recorded z-score.
-1.03

Look up z-score for this compound: CC#CC(=O)Oc1ccc(Br)cc1C=CC(=O)OCC
-1.84

May I ask what z-score has been recorded for CC(C)CN1C(=O)[C@@]2(c3ccc([N+](=O)[O-])cc3)CC(=O)N(C3CCCCC3)[C@@H]2c2ccc(CO)cc21 ?
-0.214

----------
Assay: calcein-AM signal in unstimulated myeloma cells – cell-based, calcein-AM fluorescence, 48 h, PK04 Diversity Set, profiling panel (AID 1166);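 also: cells grown under basal conditions without added stimulus; test concentration not given here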
Conditions: RPMI8226 myeloma viability, higher = more signal
Response field label takes true when z-score is strictly below -0.7 and false in all other cases.

Molecule: COC(=O)[C@@]1(Cc2ccc(OC)cc2)[C@H]2c3cc(C(=O)N4CCCC4)n(CCSCCO)c3C[C@H]2CN1C(=O)c1ccccc1
Class name: true

Molecule: COCC(=C=CC[C@@H](O)c1ccc(OCCO)cc1)C[C@@H](O)c1ccccn1
Class name: false

Molecule: CC(C)[Si](C#CCCCC#N)(Oc1ccccc1Br)C(C)C
Class name: false

Molecule: COCCOC(=O)N1C(=O)[C@@]2(c3cc(C#CCCO)ccc31)[C@H](c1ccc(OCCO)cc1)N1[C@H](c3ccccc3)[C@H](c3ccccc3)OC(=O)[C@H]1[C@@H]2C(N)=O
Class name: true

Molecule: O=C1NC(=O)C2C1C=CC(C(O)C1CC=CCC1)N2Nc1ccccn1 (stereo unspecified)
Class name: false

Consider the molecule COC(=O)[C@@]1(Cc2ccc(OC)cc2)[C@H]2c3cc(C(=O)N4CCCC4)n(CCc4ccc(O)c(O)c4)c3C[C@H]2CN1C(=O)c1ccccc1 . Is its z-score strictly less than -0.7?
true

Criterion: z-score strictly below -0.7. Is it met by COc1ccc(C(=O)Nc2ccc(CN3C(=O)[C@]4(O[C@H](CC(=O)N5CCC[C@H]5CO)[C@@H]([Si](C)(C)c5ccc(OC)cc5)[C@@H]4C)c4ccccc43)cc2)cc1 ?
true

Here's an entry: COc1ccc([C@H]2C[C@H]3C(I)=C[C@@H]2C(=O)[C@]32CO2)cc1 . Is its z-score below -0.7?
true

Given the entry COCCOC(=O)N1C(=O)[C@@]2(c3cc(C#CC4(O)CCCCCC4)ccc31)[C@H](C(=O)Nc1nc3ccccc3s1)[C@H]1C(=O)O[C@H](c3ccccc3)[C@H](c3ccccc3)N1[C@@H]2c1ccccc1OCCO , would its reported z-score be below -0.7?
true

Below -0.7 on z-score? Entry C=CCOC(=O)[C@H]1[C@@H]2C(=O)O[C@@H](c3ccccc3)[C@@H](c3ccccc3)N2[C@@H](c2ccc(OCCOC(=O)[C@@H]3C[C@@H]4C(=O)N5CCC[C@H]5C(=O)N4[C@@H]3c3cccc(OCCO)c3)cc2)[C@]12C(=O)Nc1ccc(I)cc12
false

Take the molecule O=C(CS)NCCCCCNC(=O)[C@@H]1C[C@@H]2C(=O)NCC(=O)N2[C@@H]1c1ccc(O)cc1 and say whether its z-score is less than -0.7.
true

A record lists COC(=O)[C@]1(Cc2ccccc2)N=C(c2ccc(OCCCO)cc2)O[C@@H]1c1ccccc1N=[N+]=[N-] . Is its z-score below -0.7?
true

----------
# z-score listing for each entry below
Experiment: JC-1 mitochondrial potential readout, lung cancer cells – cell-based, A549, JC-1 fluorescence, basal, 24 h, 100 nL, profiling panel (AID 1138);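 also: A549 lung adenocarcinoma cells under basal conditions with no added stimulus; test concentration not given here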
Conditions: higher = more signal

Item under review: O=C(NCc1ccccc1)[C@@H]1c2ccccc2C(=O)N(C2Cc3ccccc3C2)[C@H]1c1ccc(CO)cc1 . Reported z-score?
0.353

Consider the compound COCCOC(=O)N1C(=O)[C@@]2(c3ccccc31)[C@H](C(N)=O)[C@H]1C(=O)O[C@H](c3ccccc3)[C@H](c3ccccc3)N1[C@@H]2c1ccc(O)cc1 and give its measured z-score.
0.381

Can you share its z-score? I mean this compound: COC(=O)C[C@H]1O[C@@H](CCc2ccccc2)[C@@H](C)[C@@H]1[Si](C)(C)c1ccc(OC)cc1
1.57

Field request: z-score | item: O=C(O)[C@H]1C[C@H]2C(=O)N3CCC[C@H]3C(=O)N2[C@H]1c1ccc(O)cc1
1.62

Value lookup for z-score; key = COc1cc(CO)cc(I)c1O[C@H]1C=C(C(=O)NCCO)C[C@@H](N(C(=O)c2cc3ccccc3oc2=O)C2CCCCCC2)[C@@H]1O
-1.79

----------
Experiment: forskolin-driven CRE-LacZ activity in PC12 – cell-based, CRE-LacZ reporter, forskolin-stimulated, primary screen (AID 1146);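 also: PC12 cells with 6xCRE LacZ reporter stimulated by forskolin 10 µM; beta-galactosidase reporter signal reflecting CREB driven transcription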
Conditions: luminescence, 4.5 h, higher = more signal, called active from +8 up or from −8 down
Would you please tag the item True when its z-score is -0.4 or above, and False when it is below?

The examples below pair each entry with its known result.
Compound: COCC(=C=CC[C@H](O)c1ccccc1OCCO)CCO
Class name: True

Compound: CO[C@H]1O[C@H](CO)[C@@H](OC(=O)Nc2ccc(Br)cc2)[C@@H]2OC(=O)[C@H](Cc3cccc(Br)c3)C/C=C/C[C@@H](Cc3cccc(Br)c3)C(=O)O[C@@H]12
Class name: True

Compound: C=CCNC(=O)[C@@H]1[C@H]2C(=O)O[C@H](c3ccccc3)[C@H](c3ccccc3)N2[C@H](c2ccc(OCCO)cc2)[C@@]12C(=O)N(C(=O)OCCOC)c1ccc(C#CCNC(N)=O)cc12
Class name: False

Compound: C[C@H]1C2[C@H](Cc3ccccc3)NC(=O)[C@]23C(=O)NCC(=O)N2CCC[C@H]2C(=O)NC/C=C/CCC/C=C/C3[C@@H]2O[C@]12C (some centres not stated)
Class name: False

Compound: CCOC(=O)C[C@H]1[C@H](OC(=O)c2ccc(C(=O)c3ccccc3)cc2)[C@@H](NC(=O)Cc2ccc(OC)cc2)c2cc(OCCCO)ccc2N1C(=O)c1ccc2ccccc2n1
Class name: False

Does CCCCC(=C=CC[C@@H](O)c1ccc(CO)o1)CCO have a reported z-score of at least -0.4?
False

Check if z-score >= -0.4 (inclusive). Item: C=CC[C@]1(C(N)=O)COC(c2ccc(OCCCO)cc2)=N1
True
